experiment: Metabolic stability rat hepatocyte assessed as half life at 1 uM measured up to 120 mins by LC-MS/MS analysis; assay type: ADME, cell-based; settings: hepatocytes
readout: half-life at 1 µM (h)
Dear colleague, please return just the value in h, with no unit written.

Q) What measured half-life at 1 µM goes with Cn1c(=O)n(C2CCC(=O)NC2=O)c2cccc(C#CCO[C@H]3CC[C@H](CN4CCC5(CC4)Cc4cc(NC(=O)c6coc7cccnc67)c(N6CCC(CO)CC6)cc4O5)CC3)c21 (stereo partly specified) ?
A) 2.65

====

assay: Metabolic stability in rat liver microsome assessed as half life at 1 uM measured up to 60 mins in presence of NADPH by LC-MS/MS analysis; format: ADME; settings: liver microsomes
Provide the reported half-life at 1 µM of each item.
Dear colleague, please return just the value in h, with no unit written.

Q) What measured half-life at 1 µM goes with Cn1c(=O)n(C2CCC(=O)NC2=O)c2cccc(C#CCO[C@H]3CC[C@H](CN4CCC5(CC4)Cc4cc(NC(=O)c6cnn7cc(Cl)cnc67)c(N6CCC(CO)CC6)cc4O5)CC3)c21 (stereo partly specified) ?
A) 2.1

Q) Follow-up entry: Cn1c(=O)n(C2CCC(=O)NC2=O)c2cccc(CN3CCC4(CC3)CN(CCN3CCC5(CC3)Cc3cc(NC(=O)c6cnn7cccnc67)c(N6CCC(CO)CC6)cc3O5)C4)c21 (stereo unspecified)
A) 0.7

Q) Follow-up entry: Cn1c(=O)n(C2CCC(=O)NC2=O)c2cccc(C#CCOC3CCN(CCN4CCC5(CC4)Cc4cc(NC(=O)c6cnn7cccnc67)c(N6CCC(CO)CC6)cc4O5)CC3)c21 (stereo unspecified)
A) 1.47

Q) Follow-up entry: Cn1c(=O)n(C2CCC(=O)NC2=O)c2cccc(C#CCO[C@H]3CC[C@@H](CN4CCC5(CC4)Cc4cc(NC(=O)c6cnn7cccnc67)c(N6CCC(CO)CC6)cc4O5)CC3)c21 (stereo partly specified)
A) 1.47

Q) Follow-up entry: Cn1c(=O)n(C2CCC(=O)NC2=O)c2cccc(CN3CCC(CCN4CCC5(CC4)Cc4cc(NC(=O)c6cnn7cccnc67)c(N6CCC(CO)CC6)cc4O5)CC3)c21 (stereo unspecified)
A) 0.817
